targetOrSystem: PRMT5-MTA (Homo sapiens, UniProt O14744)
Sequence (O14744 whole entry): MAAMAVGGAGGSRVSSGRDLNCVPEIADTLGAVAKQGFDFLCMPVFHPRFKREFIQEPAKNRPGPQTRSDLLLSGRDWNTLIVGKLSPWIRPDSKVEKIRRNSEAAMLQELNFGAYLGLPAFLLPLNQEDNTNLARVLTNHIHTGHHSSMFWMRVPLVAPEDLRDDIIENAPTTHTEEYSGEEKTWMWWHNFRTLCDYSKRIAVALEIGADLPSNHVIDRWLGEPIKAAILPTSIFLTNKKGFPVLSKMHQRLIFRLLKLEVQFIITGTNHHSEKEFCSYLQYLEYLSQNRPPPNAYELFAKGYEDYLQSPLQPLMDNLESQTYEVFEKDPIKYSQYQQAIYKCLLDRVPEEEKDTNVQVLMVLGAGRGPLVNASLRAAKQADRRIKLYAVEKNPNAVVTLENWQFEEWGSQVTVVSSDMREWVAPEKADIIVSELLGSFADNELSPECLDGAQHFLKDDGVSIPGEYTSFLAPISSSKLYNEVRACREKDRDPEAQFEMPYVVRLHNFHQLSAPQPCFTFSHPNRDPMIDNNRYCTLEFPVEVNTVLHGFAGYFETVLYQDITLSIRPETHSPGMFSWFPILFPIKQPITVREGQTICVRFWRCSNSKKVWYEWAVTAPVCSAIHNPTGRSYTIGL
Sequence (Q9BQA1 whole entry partner): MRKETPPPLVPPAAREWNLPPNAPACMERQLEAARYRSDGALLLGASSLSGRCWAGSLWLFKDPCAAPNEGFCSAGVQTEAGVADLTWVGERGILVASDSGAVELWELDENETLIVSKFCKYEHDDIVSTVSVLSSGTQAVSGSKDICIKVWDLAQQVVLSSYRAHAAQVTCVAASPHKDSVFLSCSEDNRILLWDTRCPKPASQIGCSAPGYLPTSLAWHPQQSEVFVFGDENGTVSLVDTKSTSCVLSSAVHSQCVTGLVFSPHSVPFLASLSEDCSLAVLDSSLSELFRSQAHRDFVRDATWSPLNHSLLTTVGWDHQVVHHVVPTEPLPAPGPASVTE
assayName: Enzymatic inhibitory activity against PRMT5-MTA (AlphaScreen)
Assay type: biochemical
setupConditions: read-out: IC50
outcomeMeasure: pIC50
The value called pIC50 is obtained by taking minus log10 of the concentration in mol/L.

Recorded pIC50, per entry:
[
  {
    "compound": "Cc1cc2cc(C(=O)N(Cc3ccc(-c4cnn(C)c4)cn3)N(c3ncccn3)C3CC3)ccc2nc1N [Example 152]",
    "targetOrSystem": "PRMT5-MTA (Homo sapiens, UniProt O14744)",
    "outcomeMeasure": "pIC50",
    "resultValue": 8.36
  },
  {
    "compound": "C=C1CN(C(=O)c2cc3c(cc2Cl)nc(N)c2cnn(C)c23)N(c2ccccc2F)C1 [Example 431]",
    "targetOrSystem": "PRMT5-MTA (Homo sapiens, UniProt O14744)",
    "outcomeMeasure": "pIC50",
    "resultValue": 8.27
  },
  {
    "compound": "Cc1ncsc1-c1ccc(CN(C(=O)c2ccc3nc(N)c(CF)cc3c2)N(c2ncccn2)C2CC2)nc1 [Compound 324]",
    "targetOrSystem": "PRMT5-MTA (Homo sapiens, UniProt O14744)",
    "outcomeMeasure": "pIC50",
    "resultValue": 8.36
  }
]

IN: Entry Cc1cc2cc(C(=O)N(Cc3ccc(C(F)(F)F)cn3)N(C)c3cccc(C(F)(F)F)n3)ccc2nc1N [Example 88] , system PRMT5-MTA (Homo sapiens, UniProt O14744): what pIC50 was measured?
OUT: 8.60

---

# Lookup of reported Selectivity HCT 116-WT/ HCT116 MTAP KO keyed by entry
System: HCT116 MTAP KO cells
assayName: Inhibitory activity against cell proliferation (CellTiter Glo, 6 days), HCT116 MTAP KO
Assay type: cell-based
setupConditions: ratio of IC50 HCT116-WT / HCT116 MTAP KO
Give a plain numeric answer without units written out.

Recorded Selectivity HCT 116-WT/ HCT116 MTAP KO, per entry:
[
  {
    "compound": "Cc1cc2cc(C(=O)N(Cc3ccc(-c4nncs4)cn3)N(C)c3nccc4nccnc34)ccc2nc1N",
    "Selectivity HCT 116-WT/ HCT116 MTAP KO": 21.63
  },
  {
    "compound": "CCN(CC)c1ccc(-c2ccc(CN(C(=O)c3ccc4nc(N)c(C)cc4c3)N(C)c3ncccn3)nc2)cn1",
    "Selectivity HCT 116-WT/ HCT116 MTAP KO": 12.07
  },
  {
    "compound": "Cc1cc2nc(N)c3cnn(C)c3c2cc1C(=O)N1CCCN1c1ccc(C(F)(F)F)cc1",
    "Selectivity HCT 116-WT/ HCT116 MTAP KO": 13.85
  }
]

Now for a further compound.
IN: Which Selectivity HCT 116-WT/ HCT116 MTAP KO is listed for Cc1cc2nc(N)c3cnn(C)c3c2cc1C(=O)N1CC(C)CN1c1ncc(-c2cccnc2)cc1F (stereo not shown) ?
OUT: 55.73

---

# Lookup of reported Selectivity HCT 116-WT/ HCT116 MTAP KO keyed by entry
Test system: HCT116 MTAP KO cells
assayName: Inhibitory activity against cell proliferation (CellTiter Glo, 6 days), HCT116 MTAP KO
Assay type: cell-based
setupConditions: ratio of IC50 HCT116-WT / HCT116 MTAP KO
Give a plain numeric answer without units written out.

[
  {
    "compound": "Cn1ncc2c(N)nc3cc(Cl)c(C(=O)N4CC(OCC(F)(F)F)CN4c4ncccc4F)cc3c21 (stereo not drawn)",
    "Selectivity HCT 116-WT/ HCT116 MTAP KO": 25.30
  },
  {
    "compound": "Cc1cc2nc(N)c3cnn(C)c3c2cc1C(=O)N1CC2(CC2)CN1c1ncccc1F",
    "Selectivity HCT 116-WT/ HCT116 MTAP KO": 41.43
  },
  {
    "compound": "Cc1cc2nc(N)c3cnn(C)c3c2cc1C(=O)N1CC(C(F)(F)F)CN1c1ncccc1F (stereo not drawn)",
    "Selectivity HCT 116-WT/ HCT116 MTAP KO": 35.38
  },
  {
    "compound": "Cc1cc2cc(C(=O)N(Cc3ccc(-c4nc(C#N)cs4)cn3)N(C)c3ncccn3)ccc2nc1N",
    "Selectivity HCT 116-WT/ HCT116 MTAP KO": 10.33
  },
  {
    "compound": "Cc1cc2nc(N)c3cnn(C)c3c2cc1C(=O)N1CC(C)CN1c1ncc(-c2cncs2)cc1F (stereo not drawn)",
    "Selectivity HCT 116-WT/ HCT116 MTAP KO": 47.20
  }
]

Now for a further compound.
IN: Which Selectivity HCT 116-WT/ HCT116 MTAP KO is listed for "Cc1cc2cc(C(=O)N(Cc3ccc(-c4cnoc4)cn3)N(C)c3ncccn3)ccc2nc1N" ?
OUT: 25.89

---

System: HCT116 MTAP KO cells
assayName: Inhibitory activity against cell proliferation (CellTiter Glo, 6 days), HCT116 MTAP KO
Assay type: cell-based
setupConditions: ratio of IC50 HCT116-WT / HCT116 MTAP KO
outcomeMeasure: Selectivity HCT 116-WT/ HCT116 MTAP KO
Give a plain numeric answer without units written out.

IN: Entry "Cc1cc2cc(C(=O)N(Cc3ccc(-c4ccn(C)c4)cn3)N(C)c3ncccn3)ccc2nc1N" , system HCT116 MTAP KO cells: what Selectivity HCT 116-WT/ HCT116 MTAP KO was measured?
OUT: 17.25

IN: Entry "Cc1csc(-c2ccc(CN(C(=O)c3ccc4nc(N)c(C)cc4c3)N(C)c3ncccn3)nc2)n1" , system HCT116 MTAP KO cells: what Selectivity HCT 116-WT/ HCT116 MTAP KO was measured?
OUT: 24.44

IN: Entry "Cc1cc2cc(C(=O)N(Cc3ccc(-c4ccoc4)cn3)N(C)c3ncccn3)ccc2nc1N" , system HCT116 MTAP KO cells: what Selectivity HCT 116-WT/ HCT116 MTAP KO was measured?
OUT: 20.26

IN: Entry CC1CN(C(=O)c2ccc3nc(N)c4cnn(C)c4c3c2)N(c2ncccc2F)C1 (centres unmarked) , system HCT116 MTAP KO cells: what Selectivity HCT 116-WT/ HCT116 MTAP KO was measured?
OUT: 49.62

IN: Entry COCC1CN(C(=O)c2cc3c(cc2C)nc(N)c2cnn(C)c23)N(c2ncccc2F)C1 (centres unmarked) , system HCT116 MTAP KO cells: what Selectivity HCT 116-WT/ HCT116 MTAP KO was measured?
OUT: 53.25

IN: Entry "Cc1cc2cc(C(=O)N(Cc3ccc(C4=CCOC4)cn3)N(C)c3ncccn3)ccc2nc1N" , system HCT116 MTAP KO cells: what Selectivity HCT 116-WT/ HCT116 MTAP KO was measured?
OUT: 23.20

IN: Entry "Cc1cc2cc(C(=O)N(Cc3ccc(C(F)(F)F)cn3)N(c3nccc4nccnc34)C3CC3)ccc2nc1N" , system HCT116 MTAP KO cells: what Selectivity HCT 116-WT/ HCT116 MTAP KO was measured?
OUT: 44.77

IN: Entry COC1CN(C(=O)c2cc3c(cc2Cl)nc(N)c2cnn(C)c23)N(c2ncc(F)cc2F)C1 (centres unmarked) , system HCT116 MTAP KO cells: what Selectivity HCT 116-WT/ HCT116 MTAP KO was measured?
OUT: 15.10

---

System: HCT116 MTAP KO cells
assayName: Inhibitory activity against cell proliferation (CellTiter Glo, 6 days), HCT116 MTAP KO
Type: cell-based
setupConditions: ratio of IC50 HCT116-WT / HCT116 MTAP KO
Description: HCT116-WT (ATCC, CCL-247) and HCT116 MTAP KO (Nanjing Cobioer, CBP75002) cells were seeded into white low-transparency sterile 96-well cell culture plates at a density of 250 cells per well respectively, and the culture medium was McCoy's 5A Medium+10% FBS. The plates were placed under the condition of 37°C and 5% CO2 to be cultured overnight. […] The IC50 values for inhibition of the compounds on cell viability were calculated in X1fit 5.0 software. […]
outcomeMeasure: Selectivity HCT 116-WT/ HCT116 MTAP KO

Recorded Selectivity HCT 116-WT/ HCT116 MTAP KO, per entry:
[
  {
    "compound": "COc1ccccc1N1CC(C)CN1C(=O)c1cc2c(cc1C)nc(N)c1cnn(C)c12 (stereo not shown) [Example 401]",
    "targetOrSystem": "HCT116 MTAP KO cells",
    "Selectivity HCT 116-WT/ HCT116 MTAP KO": ">49.02"
  },
  {
    "compound": "Cc1cc2cc(C(=O)N(Cc3ccc(-c4ccns4)cn3)N(C)c3ncccn3)ccc2nc1N [Example 210]",
    "targetOrSystem": "HCT116 MTAP KO cells",
    "Selectivity HCT 116-WT/ HCT116 MTAP KO": 19.68
  },
  {
    "compound": "CCc1cc2cc(C(=O)N(Cc3ccc(C(F)(F)F)cn3)N(C)c3ncccn3)ccc2nc1N [Example 305]",
    "targetOrSystem": "HCT116 MTAP KO cells",
    "Selectivity HCT 116-WT/ HCT116 MTAP KO": 19.60
  }
]

Now for a further compound.
IN: Entry Cc1cc2nc(N)c3cnn(C)c3c2cc1C(=O)N1CC(C(F)(F)F)CN1c1cccc(F)n1 (stereo not shown) [Example 352] , system HCT116 MTAP KO cells: what Selectivity HCT 116-WT/ HCT116 MTAP KO was measured?
OUT: 29.42
